- Target: T1, CRBN, Q96SW2;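 also: pooled lentiviral library of zinc finger degron-EGFP fusions in mCherry-positive Jurkat cells, FACS-sorted after compound exposure, with degron abundance counted by next-generation sequencing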
- T1 chain: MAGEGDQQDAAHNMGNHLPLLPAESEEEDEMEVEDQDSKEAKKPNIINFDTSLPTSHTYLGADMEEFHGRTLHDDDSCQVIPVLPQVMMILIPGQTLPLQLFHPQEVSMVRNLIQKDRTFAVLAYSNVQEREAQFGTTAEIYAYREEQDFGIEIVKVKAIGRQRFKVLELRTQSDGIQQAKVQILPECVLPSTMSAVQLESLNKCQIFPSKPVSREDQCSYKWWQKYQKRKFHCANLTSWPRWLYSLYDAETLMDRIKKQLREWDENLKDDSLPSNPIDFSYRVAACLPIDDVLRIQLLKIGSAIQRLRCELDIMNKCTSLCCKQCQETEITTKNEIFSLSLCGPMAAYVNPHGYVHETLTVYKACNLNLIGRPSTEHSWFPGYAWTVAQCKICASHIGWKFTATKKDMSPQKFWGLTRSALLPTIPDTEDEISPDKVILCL
- Method: log2 fold change of degron read counts, EGFP-low vs EGFP+ sorted cells (limma voom), compound-induced degradation; higher = more compound-induced degradation of the degron-EGFP fusion; degrons are variants of IKZF1/3 zinc finger 2; compound dose not given here
- Assay conditions: Jurkat; 18 h; compound: compound 33 (diphenyl IMiD analogue)
In all, about 8,300 sequences were measured (“log2 fold change of degron read counts, EGFP-low vs EGFP+ sorted cells (limma voom), compound-induced degradation”: median about -1.1, highest 2% from about 3.2 on). The sample holds the highest values, similar sequences and a random draw of the others, so the mix is not that of the screen.
Readout type: log2 fold change of degron read counts

Input: For the sequence shown here, FCCNICGARFTQKGNLLRHIKL [46F_47C_49N_50I_52G_53A_54R_55F_67L_, Q9UKT9] , give the reported log2 fold change of degron read counts.
Output: 0.552

Input: Fill in: log2 fold change of degron read counts of FVCDQCGAFFTQKGNLLRHIKL [46F_47V_49D_50Q_52G_53A_54F_55F_67L_, Q9UKT9] is ___
Output: -2.12

Input: Quick one: log2 fold change of degron read counts for FGCPICGAGFTQKGNLLRHIKL [46F_47G_49P_50I_52G_53A_54G_55F_67L_, Q9UKT9] ?
Output: 2.32

Input: Look up log2 fold change of degron read counts for this sequence: LDCPICGFTCTQKGNLLRHIKL [46L_47D_49P_50I_52G_53F_54T_55C_67L_, Q9UKT9]
Output: 1.7

Input: Give the measured log2 fold change of degron read counts of FWCNVCGACFTQKGNLLRHIKL [46F_47W_49N_50V_52G_53A_54C_55F_67L_, Q9UKT9] .
Output: 1.57

Input: Query: log2 fold change of degron read counts; subject: FRCPICGAGFTQKGNLLRHIKL [46F_47R_49P_50I_52G_53A_54G_55F_67L_, Q9UKT9]
Output: 2.28

Input: Consider the sequence shown here: FECPQCGAPFTQKGNLLRHIKL [46F_47E_49P_50Q_52G_53A_54P_55F_67L_, Q9UKT9] What is its recorded log2 fold change of degron read counts?
Output: -1.67

Input: Look up log2 fold change of degron read counts: FLCNICGAAFTQKGNLLRHIKL [46F_47L_49N_50I_52G_53A_54A_55F_67L_, Q9UKT9]
Output: 0.248

Input: Which log2 fold change of degron read counts value is on record for FECDQCGALFTQKGNLLRHIKL [46F_47E_49D_50Q_52G_53A_54L_55F_67L_, Q9UKT9] ?
Output: -3.38

Input: Query (sequence): FECEICGRSFTQKGNLLRHIKL [46F_47E_49E_50I_52G_53R_54S_55F_67L_, Q9UKT9] ; field requested: log2 fold change of degron read counts
Output: -1.24

Input: Query: log2 fold change of degron read counts; subject: FQCNQCGHYFTQKGNLLRHIKL [46F_47Q_49N_50Q_52G_53H_54Y_55F_67L_, Q9UKT9]
Output: -2.9

Input: Which log2 fold change of degron read counts is listed for FGCEQCGAKFTQKGNLLRHIKL [46F_47G_49E_50Q_52G_53A_54K_55F_67L_, Q9UKT9] ?
Output: -2.15

Input: Fill blank: measured log2 fold change of degron read counts of the sequence FHCPQCGAWFTQKGNLLRHIKL [46F_47H_49P_50Q_52G_53A_54W_55F_67L_, Q9UKT9] is ____.
Output: -1.61

Input: Requested field: log2 fold change of degron read counts. Item: FMCEICGHFFTQKGNLLRHIKL [46F_47M_49E_50I_52G_53H_54F_55F_67L_, Q9UKT9]
Output: -2.32

Input: Could you share which log2 fold change of degron read counts value was measured for FKCNVCGANFTQKGNLLRHIKL [46F_47K_49N_50V_52G_53A_54N_55F_67L_, Q9UKT9] ?
Output: -3.12

Input: State the recorded log2 fold change of degron read counts for this entry: FSCPICGAGFTQKGNLLRHIKL [46F_47S_49P_50I_52G_53A_54G_55F_67L_, Q9UKT9]
Output: 1.76

Input: Any idea what log2 fold change of degron read counts was measured for FACEQCGAFFTQKGNLLRHIKL [46F_47A_49E_50Q_52G_53A_54F_55F_67L_, Q9UKT9] ?
Output: -2.14

Input: log2 fold change of degron read counts lookup needed for FVCPICGRLFTQKGNLLRHIKL [46F_47V_49P_50I_52G_53R_54L_55F_67L_, Q9UKT9] , thanks.
Output: 0.85

Input: Value lookup for log2 fold change of degron read counts; key = FLCPICGAGFTQKGNLLRHIKL [46F_47L_49P_50I_52G_53A_54G_55F_67L_, Q9UKT9]
Output: 1.6

Input: Fill blank: measured log2 fold change of degron read counts of the sequence LCCPICGFTCTQKGNLLRHIKL [46L_47C_49P_50I_52G_53F_54T_55C_67L_, Q9UKT9] is ____.
Output: 3.14

Input: Which value of log2 fold change of degron read counts has been reported for FRCDQCGAHFTQKGNLLRHIKL [46F_47R_49D_50Q_52G_53A_54H_55F_67L_, Q9UKT9] in the records?
Output: -2.01

Input: Would you mind telling me what log2 fold change of degron read counts value was observed for FYCPICGAGFTQKGNLLRHIKL [46F_47Y_49P_50I_52G_53A_54G_55F_67L_, Q9UKT9] ?
Output: 2.1

Input: Need log2 fold change of degron read counts of FACPICGAGFTQKGNLLRHIKL [46F_47A_49P_50I_52G_53A_54G_55F_67L_, Q9UKT9] , thanks.
Output: 0.663

Input: Can you look up the measured log2 fold change of degron read counts of FYCDQCGAYFTQKGNLLRHIKL [46F_47Y_49D_50Q_52G_53A_54Y_55F_67L_, Q9UKT9] for me?
Output: -1.38

Input: For the sequence shown here, FCCSVCGHLFTQKGNLLRHIKL [46F_47C_49S_50V_52G_53H_54L_55F_67L_, Q9UKT9] , give the reported log2 fold change of degron read counts.
Output: -2.22

Input: Reported log2 fold change of degron read counts, sequence FTCPICGAGFTQKGNLLRHIKL [46F_47T_49P_50I_52G_53A_54G_55F_67L_, Q9UKT9] : ____
Output: 2.35

Input: Requested field: log2 fold change of degron read counts. Item: FECPICGRGFTQKGNLLRHIKL [46F_47E_49P_50I_52G_53R_54G_55F_67L_, Q9UKT9]
Output: -0.354

Input: What does the record list as log2 fold change of degron read counts for FLCEVCGATFTQKGNLLRHIKL [46F_47L_49E_50V_52G_53A_54T_55F_67L_, Q9UKT9] ?
Output: 0.752

Input: Returns the measured log2 fold change of degron read counts for the input sequence. Input: FQCPICGAGFTQKGNLLRHIKL [46F_47Q_49P_50I_52G_53A_54G_55F_67L_, Q9UKT9]
Output: 1.77

Hello, the source for this data is the supplement of paper PMC12645437, in case you need it.
